The entries below come with measured IC50 values attached.
# assay_system: immunoproteasome LMP7/B5i subunit (Homo sapiens, UniProt P20618+P28062)
# protocol: Caliper-based proteasome enzymatic activity assay, LMP7
# assay_setup: human recombinant immunoproteasome 0.3 nM, FAM-peptide substrate 1 μM, 3 h at rt

# molecule, readout_units, IC50
records = [
    ("C=CC(=O)N1C[C@@H]2C[C@@H]2[C@@H]1COC(=O)N[C@@H](Cc1coc2ccccc12)B(O)O [Example 52]", "nM", 1.3),
    ("CC(C)(C=C(C#N)C(=O)N1CCCC[C@@H]1COC(=O)N[C@@H](Cc1ccc(C(F)(F)F)cc1)B(O)O)N1CCC(F)(F)C1 [Example 83]", "nM", 4.4),
    ("CC(C)C=C(C#N)C(=O)N1CCCCC1CCC(=O)N[C@@H](Cc1ccccc1)B(O)O (single isomer, unassigned) [Example 5]", "nM", 7.6),
    ("Cc1ccc(C[C@H](NC(=O)OC[C@H]2[C@H]3C[C@H]3CN2C(=O)C(C#N)=CC(C)(C)C)B(O)O)cc1 [Example 76]", "nM", 1.2),
    ("COc1ccc(C[C@H](NC(=O)OC[C@H]2CCCCN2C(=O)C(C#N)=CC(C)(C)C)B(O)O)cc1 [Example 70]", "nM", 6.5),
    ("C=CC(=O)N1CCC(F)(F)C[C@@H]1COC(=O)N[C@@H](Cc1coc2ccccc12)B(O)O [Example 112]", "nM", 2.5),
    ("CC(C)(C=C(C#N)C(=O)N1CCC[C@@H]1COC(=O)N[C@@H](Cc1coc2ccccc12)B(O)O)N1CCOCC1 [Example 40]", "nM", 1.3),
]
